SYSTEM NAME: CYP2C9 (Homo sapiens, UniProt P11712)
Sequence (P11712 whole entry): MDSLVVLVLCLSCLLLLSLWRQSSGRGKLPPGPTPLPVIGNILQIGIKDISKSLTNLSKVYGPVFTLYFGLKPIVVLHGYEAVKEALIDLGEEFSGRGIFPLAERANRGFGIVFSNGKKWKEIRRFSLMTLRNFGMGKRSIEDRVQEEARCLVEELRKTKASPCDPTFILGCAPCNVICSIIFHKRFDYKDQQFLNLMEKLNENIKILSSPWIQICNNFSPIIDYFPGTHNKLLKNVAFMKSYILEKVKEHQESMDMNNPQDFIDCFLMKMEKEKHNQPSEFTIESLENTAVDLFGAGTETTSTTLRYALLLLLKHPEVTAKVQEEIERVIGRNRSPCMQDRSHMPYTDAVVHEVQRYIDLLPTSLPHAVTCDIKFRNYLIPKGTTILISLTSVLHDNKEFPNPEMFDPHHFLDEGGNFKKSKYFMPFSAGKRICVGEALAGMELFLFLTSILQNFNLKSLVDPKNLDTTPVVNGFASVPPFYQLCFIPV
ASSAY REMARKS: Inhibition of CYP2C9 (unknown origin) at 10 uM
Type: ADME
QUANTITY NAME: inhibition at 10 µM (%)
Field format: number, assumed %, no unit text.

q: Under CYP2C9 (Homo sapiens, UniProt P11712): report inhibition at 10 µM of Cc1cc(N(C)C(=O)[C@H]2CC[C@H](Oc3cccc(CO)c3)CC2)ccc1CN1CCN[C@@H](C)C1 .
a: 5.3

====

ASSAY REMARKS: Ex vivo agonist activity at GPR38 in rabbit duodenum muscle tissue assessed as intestinal contractile activity
Assay type: tissue-based, Oryctolagus cuniculus
Kindly state pEC50 for each of the entries shown.
In simple prose, pEC50 is minus the logarithm base ten of a concentration in moles per litre.

q: Give the value of pEC50 reported for the following: C[C@H]1CN(Cc2ccc(CC(=O)N3CCC(Nc4cccc(F)c4)CC3)cc2)CCN1
a: 7.08

q: Specify reported pEC50 for the compound shown: Cc1cc(N(C)C(=O)[C@H]2CC[C@H](Oc3cccc(CO)c3)CC2)ccc1CN1CCN[C@@H](C)C1
a: 8.14

q: Indicate the recorded pEC50 value for this compound: C[C@H]1CN(Cc2ccc(N(C)C(=O)[C@H]3CC[C@H](Oc4ccc(F)cc4)CC3)cc2)CCN1
a: 7.55

q: Please give the documented pEC50 of CC[C@H]1CN(Cc2ccc(N(C)C(=O)[C@H]3CC[C@H](Oc4ccnc(C#N)c4)CC3)cc2C)CCN1
a: 8.32

====

SYSTEM NAME: CYP2D6 (Homo sapiens)
Sequence (P10635 whole entry): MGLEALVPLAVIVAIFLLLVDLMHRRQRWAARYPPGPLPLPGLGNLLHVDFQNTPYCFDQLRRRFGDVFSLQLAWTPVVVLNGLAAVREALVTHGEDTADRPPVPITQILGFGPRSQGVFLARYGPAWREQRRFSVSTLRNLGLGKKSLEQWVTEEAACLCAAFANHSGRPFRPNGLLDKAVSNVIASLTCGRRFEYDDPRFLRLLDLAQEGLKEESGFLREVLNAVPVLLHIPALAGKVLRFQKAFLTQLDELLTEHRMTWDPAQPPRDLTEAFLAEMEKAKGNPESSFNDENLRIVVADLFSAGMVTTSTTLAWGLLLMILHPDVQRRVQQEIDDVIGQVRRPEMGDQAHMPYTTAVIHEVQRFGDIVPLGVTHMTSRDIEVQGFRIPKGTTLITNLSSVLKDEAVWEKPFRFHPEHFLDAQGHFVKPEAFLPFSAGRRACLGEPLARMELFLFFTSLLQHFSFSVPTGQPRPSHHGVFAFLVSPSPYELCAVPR
ASSAY REMARKS: Inhibition of CYP2D6 (unknown origin) at 10 uM
Type: ADME
QUANTITY NAME: inhibition at 10 µM (%)
Number in %, nothing else.

q: Report measured inhibition at 10 µM on CYP2D6 (Homo sapiens); entry: Cc1cc(N(C)C(=O)[C@H]2CC[C@H](Oc3cccc(CO)c3)CC2)ccc1CN1CCN[C@@H](C)C1
a: 8.8

====

SYSTEM NAME: CYP3A4 (Homo sapiens)
ASSAY REMARKS: Inhibition of CYP3A4 in human liver microsomes assessed as remaining activity
Type: ADME, Microsome
Design: concentration or dose not given beside the values
QUANTITY NAME: activity (%)
Reply with just the number (in %).

q: Input Cc1cc(N(C)C(=O)[C@H]2CC[C@H](Oc3ccc(F)c(CO)c3)CC2)ccc1CN1CCN[C@@H](C)C1 , output reported activity.
a: 54

q: For the molecule Cc1cc(N(C)C(=O)[C@H]2CC[C@H](Oc3cccc(CO)c3)CC2)ccc1CN1CCN[C@@H](C)C1 , report activity.
a: 74

q: # return recorded activity for entry Cc1cc(N(C)C(=O)[C@H]2CC[C@H](Oc3cccc(CCO)c3)CC2)ccc1CN1CCN[C@@H](C)C1
a: 60

q: Output measured activity for this item: Cc1cc(CN2CCN[C@@H](C)C2)ccc1N(C)C(=O)[C@H]1CC[C@H](Oc2ccc(F)cc2)CC1
a: 40

====

ASSAY REMARKS: Effective permeability of the compound at pH 5 by PAMPA assay
Format: ADME
ASSAY SETUP: read-out: Peff
QUANTITY NAME: Papp
Report field: quantity (unit follows the number).

q: For the compound Cc1cc(N(C)C(=O)[C@H]2CC[C@H](Oc3cccc(CO)c3)CC2)ccc1CN1CCN[C@@H](C)C1 , give its measured Papp value.
a: 1.5 ×10⁻⁶ cm/s

====

ASSAY REMARKS: Protein binding in human
Type: ADME
ASSAY SETUP: read-out: PB (converted)
QUANTITY NAME: fraction unbound

q: Specify measured fraction unbound for Cc1cc(N(C)C(=O)[C@H]2CC[C@H](Oc3cccc(CO)c3)CC2)ccc1CN1CCN[C@@H](C)C1 .
a: 0.228

====

SYSTEM NAME: CYP3A4 (Homo sapiens)
ASSAY REMARKS: Inhibition of CYP3A4 (unknown origin) at 10 uM
Type: ADME
QUANTITY NAME: inhibition at 10 µM

q: Check the records and state inhibition at 10 µM for Cc1cc(N(C)C(=O)[C@H]2CC[C@H](Oc3cccc(CO)c3)CC2)ccc1CN1CCN[C@@H](C)C1
a: 3.1%

====

SYSTEM NAME: CYP3A4 (Homo sapiens, UniProt P08684)
Sequence (P08684 whole entry): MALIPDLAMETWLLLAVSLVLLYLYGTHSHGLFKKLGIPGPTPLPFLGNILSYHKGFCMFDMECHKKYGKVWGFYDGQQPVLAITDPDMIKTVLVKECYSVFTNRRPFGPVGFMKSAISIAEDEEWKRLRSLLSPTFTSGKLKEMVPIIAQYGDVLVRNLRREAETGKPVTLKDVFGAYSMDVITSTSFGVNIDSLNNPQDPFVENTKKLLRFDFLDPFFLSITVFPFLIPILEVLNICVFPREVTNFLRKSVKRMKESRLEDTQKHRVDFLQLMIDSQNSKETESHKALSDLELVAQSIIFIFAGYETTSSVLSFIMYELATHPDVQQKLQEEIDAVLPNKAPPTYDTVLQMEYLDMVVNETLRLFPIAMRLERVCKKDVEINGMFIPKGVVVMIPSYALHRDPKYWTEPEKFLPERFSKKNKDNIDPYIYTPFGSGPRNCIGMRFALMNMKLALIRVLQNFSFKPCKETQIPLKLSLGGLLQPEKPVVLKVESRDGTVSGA
ASSAY REMARKS: Inhibition of CYP3A4 in human liver microsomes assessed as remaining activity
Format: ADME, Microsome
Set-up: concentration or dose not given beside the values
// map activity to label using interval 1: < 50%; interval 2: ≥ 50% and < 60%; interval 3: ≥ 60%

q: Bin? C[C@H]1CN(Cc2ccc(N(C)C(=O)[C@H]3CC[C@H](Oc4ccc(F)cc4)CC3)cc2)CCN1
a: interval 1

q: Category of Cc1cc(N(C)C(=O)[C@H]2CC[C@H](Oc3cccc(C(=O)O)c3)CC2)ccc1CN1CCN[C@@H](C)C1 :
a: interval 3

q: Please indicate the class for Cc1cc(N(C)C(=O)[C@H]2CC[C@H](Oc3cccc(CC(=O)NC(C)C)c3)CC2)ccc1CN1CCN[C@@H](C)C1 based on its activity.
a: interval 3

q: Tag the class for C[C@H]1CN(Cc2ccc(N(C)C(=O)[C@H]3CC[C@H](Oc4ccc(F)cc4)CC3)cc2Cl)CCN1
a: interval 1

q: Determine which band this molecule sits in: CC[C@H]1CN(Cc2ccc(N(C)C(=O)[C@H]3CC[C@H](Oc4ccc(F)cc4)CC3)cc2C)CCN1
a: interval 1

q: Given Cc1cc(N(C)C(=O)[C@H]2CC[C@H](Oc3ccc(F)cc3)CC2)ccc1CN1CCN[C@@H](C)C1 , name the class its activity places it in.
a: interval 1

q: Category of Cc1cc(N(C)C(=O)[C@H]2CC[C@H](Oc3ccc(F)cc3)CC2)ccc1CN1CCNCC1 , please.
a: interval 3

q: Dear colleague, I would appreciate it if you could identify the bin for Cc1cc(N(C)C(=O)[C@H]2CC[C@H](Oc3cc(CO)ccc3C)CC2)ccc1CN1CCN[C@@H](C)C1 and reply at your convenience.
a: interval 2

q: Lab note: which band did Cc1cc(N(C)C(=O)[C@H]2CC[C@H](Oc3ccc(F)cn3)CC2)ccc1CN1CCN[C@@H](C)C1 land in?
a: interval 1

q: Assign a bin to CC[C@H]1CN(Cc2ccc(N(C)C(=O)[C@H]3CC[C@H](Oc4ccnc(C#N)c4)CC3)cc2C)CCN1
a: interval 3

q: # classify by activity band: Cc1cc(N(C)C(=O)[C@H]2CC[C@H](Oc3ccc(Cl)c(CO)c3)CC2)ccc1CN1CCN[C@@H](C)C1
a: interval 2

====

Please provide measured logD for the entries that follow.
ASSAY REMARKS: Lipophilicity, logD of the compound at pH 7.4
ASSAY SETUP: buffer

q: Please report the measured logD for CCOCc1cccc(N[C@H]2CC[C@H](C(=O)N(C)c3ccc(CN4CCN[C@@H](C)C4)c(C)c3)CC2)c1
a: 2.5

q: Provide only the value of recorded logD for Cc1cc(N(C)C(=O)[C@H]2CC[C@H](Oc3cccc(CO)c3)CC2)ccc1CN1CCN[C@@H](C)C1
a: 1.3

q: Please list logD recorded for the molecule CC[C@H]1CN(Cc2ccc(N(C)C(=O)[C@H]3CC[C@H](Oc4ccnc(C#N)c4)CC3)cc2C)CCN1
a: 1

q: State its logD: Cc1cc(N(C)C(=O)[C@H]2CC[C@H](Oc3cccc(CC(C)(C)O)c3)CC2)ccc1CN1CCN[C@@H](C)C1
a: 2

q: Give me measured logD, please, for this molecule: Cc1cc(N(C)C(=O)[C@H]2CC[C@H](Oc3cccc(CC(=O)NC(C)C)c3)CC2)ccc1CN1CCN[C@@H](C)C1
a: 1.8

q: Check the records and state logD for Cc1cc(N(C)C(=O)[C@H]2CC[C@H](Oc3ccc(F)c(CO)c3)CC2)ccc1CN1CCN[C@@H](C)C1
a: 1.6

q: Read the entry Cc1cc(N(C)C(=O)[C@H]2CC[C@H](Oc3cccc(CCO)c3)CC2)ccc1CN1CCN[C@@H](C)C1 and write its reported logD.
a: 1.3

q: Return the recorded logD value; entry: Cc1cc(N(C)C(=O)[C@H]2CC[C@H](Oc3ccc(F)cn3)CC2)ccc1CN1CCN[C@@H](C)C1
a: 1.9

q: Retrieve logD measured for Cc1cc(N(C)C(=O)[C@H]2CC[C@H](Oc3ccc(F)cc3)CC2)ccc1CN1CCN[C@@H](C)C1 and print it.
a: 2.5

q: Give recorded logD. Cc1cc(N(C)C(=O)[C@H]2CC[C@H](Oc3cccc(C(=O)O)c3)CC2)ccc1CN1CCN[C@@H](C)C1
a: -0.4

====

ASSAY REMARKS: Effective permeability of the compound at pH 7.4 by PAMPA assay
Assay type: ADME
ASSAY SETUP: read-out: Peff
QUANTITY NAME: Papp
Reply with a number, then the unit it belongs to.

q: State its Papp for this compound: Cc1cc(N(C)C(=O)[C@H]2CC[C@H](Oc3cccc(CO)c3)CC2)ccc1CN1CCN[C@@H](C)C1
a: 48 ×10⁻⁶ cm/s
